FYI, the data here is from patent US8404708B2.

target: human NK1 receptor (Homo sapiens); assay: NK1 receptor binding, [3H]substance P displacement, CHO cell membranes; conditions: first value of the cell pKi NK1/NK3; human NK1 receptor, [3H]substance P
Sequence (P25103 whole entry): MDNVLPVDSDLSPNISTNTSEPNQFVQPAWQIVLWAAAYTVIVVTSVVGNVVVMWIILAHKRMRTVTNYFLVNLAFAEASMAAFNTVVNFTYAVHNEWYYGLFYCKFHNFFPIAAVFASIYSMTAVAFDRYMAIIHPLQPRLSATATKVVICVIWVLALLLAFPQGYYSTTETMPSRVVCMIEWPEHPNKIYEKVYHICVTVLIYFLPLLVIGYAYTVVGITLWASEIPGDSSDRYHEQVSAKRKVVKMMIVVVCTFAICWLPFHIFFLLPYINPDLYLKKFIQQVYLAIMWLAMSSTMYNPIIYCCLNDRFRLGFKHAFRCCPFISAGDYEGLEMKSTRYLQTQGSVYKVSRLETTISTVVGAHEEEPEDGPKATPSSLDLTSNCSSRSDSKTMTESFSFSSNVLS
Quick reference: Ki of the listed items.
# output: numeric value plus its unit

Reference set (3 entries):
compound: CN(C(=O)C(C)(C)c1cc(C(F)(F)F)cc(C(F)(F)F)c1)c1cnc(N2CCC(CO)CC2)cc1-c1ccccc1Cl [Example 52]
test.target: human NK1 receptor (Homo sapiens)
measured.parameter: Ki
reading: 1.1 nM
//
compound: Cc1ccccc1-c1cc(N2CCC[C@@H]2CO)ncc1N(C)C(=O)C(C)(C)c1cc(C(F)(F)F)cc(C(F)(F)F)c1 [Example 168]
test.target: human NK1 receptor (Homo sapiens)
measured.parameter: Ki
reading: 2.09 nM
//
compound: CC(O)CN(CC(C)O)c1cc(-c2ccccc2Cl)c(N(C)C(=O)C(C)(C)c2cc(C(F)(F)F)cc(C(F)(F)F)c2)cn1 (stereo not shown) [Example 124]
test.target: human NK1 receptor (Homo sapiens)
measured.parameter: Ki
reading: 2.63 nM

Give Ki for Cc1ccccc1-c1cc(N(CCO)CCO)ncc1N(C)C(=O)C(C)(C)c1cc(C(F)(F)F)cc(C(F)(F)F)c1 [Example 83]
1.17 nM

Please indicate Ki recorded for Cc1ccccc1-c1cc(N2CC(O)C2)ncc1N(C)C(=O)C(C)(C)c1cc(C(F)(F)F)cc(C(F)(F)F)c1 [Example 163]
1.82 nM
